# Activity annotations
# target.of.assay: Galectin-3 (Homo sapiens)
# Sequence (P17931 whole entry): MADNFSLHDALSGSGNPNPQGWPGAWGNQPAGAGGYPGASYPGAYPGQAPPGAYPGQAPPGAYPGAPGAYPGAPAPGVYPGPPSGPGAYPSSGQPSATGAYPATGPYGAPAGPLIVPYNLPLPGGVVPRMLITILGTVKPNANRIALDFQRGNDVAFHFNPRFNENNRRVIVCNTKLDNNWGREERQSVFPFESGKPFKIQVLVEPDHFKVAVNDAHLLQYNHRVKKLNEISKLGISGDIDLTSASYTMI
# method.description: Inhibition of recombinant galectin 3 in human O type red blood cells by hemagglutinination assay relative to lactose

{"smiles.string": "OC[C@@H]1O[C@H](O[C@@H]2[C@@H](O)[C@H](O)[C@@H](SCC#CC#CCS[C@@H]3O[C@H](CO)[C@@H](O[C@@H]4O[C@H](CO)[C@H](O)[C@H](O)[C@H]4O)[C@H](O)[C@H]3O)O[C@H]2CO)[C@@H](O)[C@H](O)[C@@H]1O", "Activity": 2.5}
{"smiles.string": "OC[C@@H]1O[C@H](O[C@@H]2[C@@H](O)[C@H](O)[C@@H](n3cc(CS[C@@H]4O[C@H](CO)[C@@H](O[C@@H]5O[C@H](CO)[C@H](O)[C@H](O)[C@H]5O)[C@H](O)[C@H]4O)nn3)O[C@H]2CO)[C@@H](O)[C@H](O)[C@@H]1O", "Activity": 2.5}

* * *

# target.of.assay: Galectin-3 (Homo sapiens)
# method.description: Inhibition of recombinant galectin 3 in human O type red blood cells by hemagglutinination assay relative to galactose
Activity values by entry

{"molecule": "COC(=O)/C=C/C[C@@H]1O[C@H](CO)[C@H](O)[C@H](O)[C@H]1O", "relation.qualifier": "=", "Activity": 10}
{"molecule": "OC[C@@H]1O[C@H](O[C@@H]2[C@@H](O)[C@H](O)[C@@H](n3cc(CS[C@@H]4O[C@H](CO)[C@@H](O[C@@H]5O[C@H](CO)[C@H](O)[C@H](O)[C@H]5O)[C@H](O)[C@H]4O)nn3)O[C@H]2CO)[C@@H](O)[C@H](O)[C@@H]1O", "relation.qualifier": "=", "Activity": 5}
{"molecule": "O=C[C@H](O)[C@@H](O)[C@@H](O)[C@H](O)CO", "relation.qualifier": "=", "Activity": 1}
{"molecule": "COC(=O)/C=C(\\C[C@@H]1O[C@H](CO)[C@H](O)[C@H](O)[C@H]1O)c1ccccc1", "relation.qualifier": "<", "Activity": 10}
{"molecule": "OC[C@@H]1O[C@H](n2cc(CS[C@@H]3O[C@H](CO)[C@H](O)[C@H](O)[C@H]3O)nn2)[C@@H](O)[C@H](O)[C@@H]1O", "relation.qualifier": "=", "Activity": 20}
{"molecule": "C#CCS[C@@H]1O[C@H](CO)[C@@H](O[C@@H]2O[C@H](CO)[C@H](O)[C@H](O)[C@H]2O)[C@H](O)[C@H]1O", "relation.qualifier": "=", "Activity": 2.6}
{"molecule": "OC[C@@H]1O[C@H](SCC#Cc2ccc(C#CCS[C@@H]3O[C@H](CO)C(O)[C@H](O)[C@H]3O)cc2)[C@@H](O)[C@H](O)[C@@H]1O (single isomer, unassigned)", "relation.qualifier": "<", "Activity": 10}
{"molecule": "OC[C@@H]1O[C@H](SCC#CC#CCS[C@@H]2O[C@H](CO)[C@H](O)[C@H](O)[C@H]2O)[C@@H](O)[C@@H](O)[C@@H]1O", "relation.qualifier": "<", "Activity": 10}
{"molecule": "C=C(C[C@@H]1O[C@H](CO)[C@H](O)[C@H](O)[C@H]1O)c1cccc([N+](=O)[O-])c1", "relation.qualifier": "<", "Activity": 10}
{"molecule": "OC[C@@H]1O[C@H](O[C@@H]2[C@@H](O)[C@H](O)[C@@H](n3cc(CS[C@@H]4O[C@H](CO)[C@H](O)[C@H](O)[C@H]4O)nn3)O[C@H]2CO)[C@@H](O)[C@H](O)[C@@H]1O", "relation.qualifier": "=", "Activity": 1.3}
{"molecule": "CC(=O)C[C@@H]1O[C@H](CO)[C@H](O)[C@H](O)[C@H]1O", "relation.qualifier": "=", "Activity": 10}
{"molecule": "OC[C@H]1O[C@@H](C/C=C/c2ccccc2)[C@H](O)[C@@H](O)[C@H]1O", "relation.qualifier": "<", "Activity": 10}
{"molecule": "OC[C@@H]1O[C@H](O[C@@H]2[C@@H](O)[C@H](O)[C@@H](SCC#CC#CCS[C@@H]3O[C@H](CO)[C@@H](O[C@@H]4O[C@H](CO)[C@H](O)[C@H](O)[C@H]4O)[C@H](O)[C@H]3O)O[C@H]2CO)[C@@H](O)[C@H](O)[C@@H]1O", "relation.qualifier": "=", "Activity": 5}

* * *

# target.of.assay: Galectin-1 (Homo sapiens, UniProt P09382)
# Sequence (P09382 whole entry): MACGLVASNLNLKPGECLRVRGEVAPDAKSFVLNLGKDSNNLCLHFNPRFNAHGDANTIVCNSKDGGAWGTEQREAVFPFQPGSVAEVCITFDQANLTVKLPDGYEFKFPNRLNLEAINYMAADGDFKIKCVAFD
# method.description: Inhibition of recombinant galectin 1 in human O type red blood cells by hemagglutinination assay relative to galactose
test.readout: Activity

{"smiles.string": "C#CCS[C@@H]1O[C@H](CO)[C@H](O)[C@H](O)[C@H]1O", "test.readout": "Activity", "relation.qualifier": "<", "assay.value": 10}
{"smiles.string": "OC[C@H]1O[C@@H](C/C=C/c2ccccc2)[C@H](O)[C@@H](O)[C@H]1O", "test.readout": "Activity", "relation.qualifier": "<", "assay.value": 10}
{"smiles.string": "C=C(C[C@@H]1O[C@H](CO)[C@H](O)[C@H](O)[C@H]1O)c1cccc([N+](=O)[O-])c1", "test.readout": "Activity", "relation.qualifier": "=", "assay.value": 10}
{"smiles.string": "OC[C@@H]1O[C@H](O[C@@H]2[C@@H](O)[C@H](O)[C@@H](n3cc(CS[C@@H]4O[C@H](CO)[C@H](O)[C@H](O)[C@H]4O)nn3)O[C@H]2CO)[C@@H](O)[C@H](O)[C@@H]1O", "test.readout": "Activity", "relation.qualifier": "=", "assay.value": 2.6}
{"smiles.string": "C/C=C/[C@@H]1O[C@H](CO)[C@H](O)[C@H](O)[C@H]1O", "test.readout": "Activity", "relation.qualifier": "<", "assay.value": 10}
{"smiles.string": "CC(=O)C[C@@H]1O[C@H](CO)[C@H](O)[C@H](O)[C@H]1O", "test.readout": "Activity", "relation.qualifier": "<", "assay.value": 10}
{"smiles.string": "O=C[C@H](O)[C@@H](O)[C@@H](O)[C@H](O)CO", "test.readout": "Activity", "relation.qualifier": "=", "assay.value": 1}
{"smiles.string": "COC(=O)/C=C(\\C[C@@H]1O[C@H](CO)[C@H](O)[C@H](O)[C@H]1O)c1ccccc1", "test.readout": "Activity", "relation.qualifier": "=", "assay.value": 160}
{"smiles.string": "OC[C@@H]1O[C@H](O[C@@H]2[C@@H](O)[C@H](O)[C@@H](n3cc(CS[C@@H]4O[C@H](CO)[C@@H](O[C@@H]5O[C@H](CO)[C@H](O)[C@H](O)[C@H]5O)[C@H](O)[C@H]4O)nn3)O[C@H]2CO)[C@@H](O)[C@H](O)[C@@H]1O", "test.readout": "Activity", "relation.qualifier": "=", "assay.value": 2.6}
{"smiles.string": "OC[C@@H]1O[C@H](n2cc(CS[C@@H]3O[C@H](CO)[C@@H](O[C@@H]4O[C@H](CO)[C@H](O)[C@H](O)[C@H]4O)[C@H](O)[C@H]3O)nn2)[C@@H](O)[C@H](O)[C@@H]1O", "test.readout": "Activity", "relation.qualifier": "=", "assay.value": 1.3}
{"smiles.string": "C=C(C[C@@H]1O[C@H](CO)[C@H](O)[C@H](O)[C@H]1O)c1ccc(OC)cc1", "test.readout": "Activity", "relation.qualifier": "<", "assay.value": 10}

The values you see were collected from ChEMBL document CHEMBL1156608.
